# Test system: DLD1
# Procedure Text: cell viability (CellTiter-Glo) relative to plate median (fraction of plate median); higher = more viable cells
# Condition Set: 5 µM; treatment time 24 h; reporter: 7TFP
Endpoint Name: cell viability
Respond using a number only.

| Molecule | cell viability |
| --- | --- |
| C=C(C)[C@@H]1C[C@H](O)[C@]2(C(=O)O[C@@H]3O[C@H](CO[C@@H]4O[C@H](CO)[C@@H](O[C@@H]5O[C@@H](C)[C@H](O)[C@@H](O)[C@H]5O)[C@H](O)[C@H]4O)[C@@H](O)[C@H](O)[C@H]3O)CC[C@]3(C)[C@H](C[C@H]4OC(=O)C[C@@H](O)[C@]5(C)[C@@H]4[C@@]3(C)CC[C@H]5C(=C)C)[C@@H]12 [22alpha-hydroxychiisanoside (4)] | 0.87 |
| CC(=O)Nc1cccc(O)c1 | 0.933 |
| CC(=O)O[C@@H]1C[C@@]2(C)C(CC[C@@H]2C(C)=O)C2CCC3=CC(=O)CC[C@]3(C)C21 (some centres not stated) | 0.943 |
| COc1ccc(-c2cc(=O)c3c(O)cc(O[C@@H]4O[C@H](CO[C@@H]5O[C@@H](C)[C@H](O)[C@@H](O)[C@H]5O)[C@@H](O)[C@H](O)[C@H]4O)cc3o2)cc1O | 0.999 |
| N=C(N)NCCCCN | 1 |

Q: Assign cell viability to the following record: CC(=O)OC1CCC2(O)CC1(C)CCC1C2CC1(C)C (configuration not stated)
Result: 1.03

Q: Let me know recorded cell viability for C[C@H]1O[C@@H](O[C@H]2[C@@H](O)C[C@H](O[C@H]3[C@@H](O)C[C@H](O[C@H]4CC[C@@]5(C)[C@H](CC[C@@H]6[C@@H]5CC[C@]5(C)[C@@H](C7=CC(=O)OC7)CC[C@]65O)C4)O[C@@H]3C)O[C@@H]2C)C[C@H](O)[C@@H]1O , thanks.
Result: 0.706
